Tested Target: CNE20 N276A
Assay Overview: Env ELISA, IgG dilution series on SOSIP trimer, area under the binding curve

- Binder: "IO-008 (antibody, V domains shown) VH: QVQLVQSGAEVKKPGASVTVSCKASGYTFTGYELHWVRQAPGQGLEWMGWINPYRGAVKYAQKFQGRVTMTRDTSISTAYMVLNGLRSDDTAVYYCARDMFDSSDEWSPWRGMVAWGQGTPVTVSS VL: QSALTQPASVSGSPGQSITISCTGTSSDVGSYDLVSWYQQHPGKAPKLMIYEVSKRPSGVSNRFSGSKSGNTASLTISGLQAEDEADYYCCSYADSLVFGGGTKVTGL"
  binding result: "binds"
- Binder: "IO-017 (antibody, V domains shown, also called 10-017) VH: QVQLVQSGAEVKKPGASVTVSCKASGYTFTGYHLHWVRQAPGQGLEWMGWINPFRGAIGYAQKFRGRVTMTRDTSINTAYMELRGLRSDDTAVYFCAREMFDSDDDWSPWRGMVAWGQGTLVTVSS VL: QSALTQPASVSGSPGQSITISCTGTSSDIGGYDLVSWYQQHPGKAPKLMIYDVNKRPSGVSNRFSGSKSGNTASLTISGFQAEDEADYYCCSYADTLVFGGGTKLTVL"
  binding result: "binds"
- Binder: "IO-010 (antibody, V domains shown, also called 10-010) VH: QVQLVQSGAEVKKPGASVTVSCKASGYTFTGYHLHWVRQAPGQGLEWMGWINPFRGAIGYAQKFRGRVTMTRDTSIITAYMELRGLRSDDTAVYFCAREMFDSDDEWSPWRGMVAWGQGTLVTVSS VL: QSALTQPASVSGSPGQSITISCTGTSSDIGGYNLVSWYQQHPGKAPKLMIYDVNKRPSGVSNRFSGSKSGNTASLTISGFQAEDEADYYCCSYADTLVFGGGTKLTVL"
  binding result: "binds"
